System: HIV-1 (NL4-3 strain)
Assay protocol: Assay for Inhibition of HIV Replication (kinetic assay, MT4-gag-GFP reporter cell line; VIKING)
Type: cell-based
Experimental conditions: MT4-GFP cells infected with HIV-1 NL4-3; 100% normal human serum (NHS); read-out: VIKING IP50 (nM) with 100% NHS
Measure: log10(IC50) (log10 of the value in nM)
All values: base-10 log of IC50 in nM.

Q: # lookup: log10(IC50) of O=C(NCc1cccc(Cl)c1F)c1c2n3c(c(O)c1=O)C(=O)N1C4CCC(C4)OC1C3CC2 (stereo not drawn) [Compound 153]
Result: 1.98

Q: Then this molecule: C[C@H]1CN2C(=O)c3c(O)c(=O)c(C(=O)NCc4cccc(Cl)c4F)c4n3C(CC4)C2O1 (single isomer, unassigned) [Compound 44]
Result: 2.58

Q: Then this molecule: C[C@H]1CNC2C3CCc4c(C(=O)NCc5ccc(F)cc5F)c(=O)c(O)c(n43)C(=O)N21 (stereo partly drawn) [Compound 100]
Result: 1.75

Q: Then this molecule: C[C@H]1CN(C)C2C3CCc4c(C(=O)NCc5cccc(Cl)c5F)c(=O)c(O)c(n43)C(=O)N21 (stereo partly drawn) [Compound 109]
Result: 2.68

Q: Then this molecule: CCNC1CC2C3OCCCN3C(=O)c3c(O)c(=O)c(C(=O)NCc4ccc(F)cc4F)c1n32 (stereo not drawn) [Compound 202]
Result: 1.60

Q: Then this molecule: O=C(NCc1c(F)cc(F)cc1F)c1c2n3c(c(O)c1=O)C(=O)N1CCOC1C3CC2 (single isomer, unassigned) [Compound 20]
Result: 2.78

Q: Then this molecule: CN1CCCN2C(=O)c3c(O)c(=O)c(C(=O)NCc4ccc(F)cc4F)c4n3C(CC4)C12C (stereo not drawn)
Result: 0.97

Q: Then this molecule: O=C(NCc1ccc(F)c(Cl)c1F)c1c2n3c(c(O)c1=O)C(=O)N1C4CCC(C4)OC1C3CC2 (stereo not drawn) [Compound 159]
Result: 1.95

Q: Then this molecule: O=C(NCc1ccc(F)cc1)c1c2n3c(c(O)c1=O)C(=O)N1C4CCC(C4)OC1C3CC2 (stereo not drawn) [Compound 163]
Result: 3.22

----------
Provide the recorded log10 of IC50 for the entries that follow.
Tested on: HIV-1 (NL4-3 strain)
Assay protocol: Assay for Inhibition of HIV Replication (kinetic assay, MT4-gag-GFP reporter cell line; VIKING)
Assay type: cell-based
Experimental conditions: MT4-GFP cells infected with HIV-1 NL4-3; 100% normal human serum (NHS); read-out: VIKING IP50 (nM) with 100% NHS
All values: base-10 log of IC50 in nM.

Q: # lookup: log10 of IC50 of CCNC1CC2C3OCCCN3C(=O)c3c(O)c(=O)c(C(=O)NCc4c(F)cc(F)cc4F)c1n32 (stereo not shown) [Compound 181]
Result: 1.48

Q: Then this compound: C[C@H]1CN2C(=O)c3c(O)c(=O)c(C(=O)NCc4cccc(Cl)c4F)c4n3C(CC4)C2O1 (single isomer, unassigned) [Compound 45]
Result: 2.69

Q: Then this compound: COC1CC2C3N(C)CCN3C(=O)c3c(O)c(=O)c(C(=O)NCc4ccc(F)cc4F)c1n32 (stereo not shown) [Compound 126]
Result: 2.32

Q: Then this compound: CC12OCCCN1C(=O)c1c(O)c(=O)c(C(=O)NCc3ccc(F)cc3F)c3n1C2CC3 (stereo not shown) [Compound 133]
Result: 2.79

Q: Then this compound: CCCN1C[C@H](C)N2C(=O)c3c(O)c(=O)c(C(=O)NCc4cccc(Cl)c4F)c4n3C(CC4)C12 (stereo partly shown) [Compound 114]
Result: 2.24

Q: Then this compound: O=C(NCc1c(F)cc(F)cc1F)c1c2n3c(c(O)c1=O)C(=O)N1C4CCC(C4)OC1C3CC2 (stereo not shown) [Compound 169]
Result: 1.63

Q: Then this compound: C[C@H]1CN2C(=O)c3c(O)c(=O)c(-c4nnc(Cc5ccc(F)cc5F)s4)c4n3C(CC4)C2N1 (stereo partly shown) [Compound 131]
Result: 1.56
